Provenance of the data: patent US20230056252A1

Target Desc: T1, CD3 expressed on cell-surface of primary human T cells (human, UniProt P07766 23-207; P04234 22-171)
T1 construct: also called cell-surface CD3; human CD3
T1 sequence (P07766 23-207 limits assumed, chain 1 of 2): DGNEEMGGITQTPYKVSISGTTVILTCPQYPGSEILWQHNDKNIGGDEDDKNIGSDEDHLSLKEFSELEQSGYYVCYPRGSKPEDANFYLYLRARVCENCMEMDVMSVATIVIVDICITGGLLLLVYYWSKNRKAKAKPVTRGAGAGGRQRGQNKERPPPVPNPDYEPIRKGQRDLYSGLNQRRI
T1 sequence (P04234 22-171 limits assumed, chain 2 of 2): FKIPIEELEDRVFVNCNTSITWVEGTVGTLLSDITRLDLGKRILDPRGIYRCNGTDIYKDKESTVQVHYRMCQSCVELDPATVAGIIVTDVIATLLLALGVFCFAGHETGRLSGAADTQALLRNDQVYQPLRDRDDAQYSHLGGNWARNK
Protocol Summary: flow cytometry competition vs murine SP34-AF488 on human T cells, n = 2
Record form. Attribute: IC50. Fill in for each entry.

# IC50 (binder: huSP34.2.5 Fab-HF (Fab, V domains shown) VH: EVQLVESGGGLVQPGGSLRLSCAASGFTFSTYAMNWVRQAPGKGLEWVGRIRSKYNNYATYYAASVKGRFTISRDDSKNSLYLQMNSLKTEDTAMYYCVRHGNFGNSYVSWFAVWGQGTLVTVSS VL: QAVVTQEPSLTVSPGGTVTLTCGSSTGAVTTGHYANWVQQKPGQAPRGLIGGTSNRAPWTPARFSGSLLGGKAALTLSGAQPEDEAEYYCALWYSARWVFGGGTKLTVL ) is > 20 µg/mL

# IC50 (binder: huSP34.5.4 Fab-HF (Fab, V domains shown) VH: EVQLVESGGGLVQPGGSLRLSCAASGFTFSTYAMNWVRQAPGKGLEWVGRIRSKYNNYATYYADSVKGRFTISRDNSKNTLYLQMNSLRAEDTAVYYCVRHGNFGHSYVSWFAVWGQGTLVTVSS VL: QAVVTQEPSLTVSPGGTVTLTCGSSTGAVTTSHYANWVQQKPGQAPRGLIGGTSKRAPWTPARFSGSLLGGKAALTLSGAQPEDEAEYYCALWYSALWVFGGGTKLTVL ) is > 20 µg/mL

# IC50 (binder: huSP34.3.4 Fab-HF (Fab, V domains shown) VH: EVQLVESGGGLVQPGGSLRLSCAASGFTFNTYAMNWVRQAPGKGLEWVGRIRSKYNNYATYYADSVKGRFTISRDDSKNSLYLQMNSLRTEDTAVYYCVRHGNFGHSYVSWFAYWGQGTLVTVSS VL: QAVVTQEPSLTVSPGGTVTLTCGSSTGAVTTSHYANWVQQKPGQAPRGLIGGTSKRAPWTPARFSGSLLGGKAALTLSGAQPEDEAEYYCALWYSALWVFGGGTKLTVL ) is 17.3 µg/mL

# IC50 (binder: huSP34.5.5 Fab-HF (Fab, V domains shown) VH: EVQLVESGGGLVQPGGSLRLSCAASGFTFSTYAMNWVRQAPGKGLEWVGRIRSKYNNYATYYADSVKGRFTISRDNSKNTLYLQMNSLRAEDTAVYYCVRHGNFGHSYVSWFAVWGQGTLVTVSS VL: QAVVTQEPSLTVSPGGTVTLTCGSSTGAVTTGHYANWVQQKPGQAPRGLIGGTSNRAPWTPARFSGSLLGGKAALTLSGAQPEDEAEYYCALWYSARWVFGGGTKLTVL ) is > 20 µg/mL

# IC50 (binder: huSP34.4.5 Fab-HF (Fab, V domains shown) VH: EVQLVESGGGLVQPGGSLRLSCAASGFTFSTYAMNWVRQAPGKGLEWVGRIRSKYNNYATYYAASVKGRFTISRDDSKNSLYLQMNSLRTEDTAVYYCVRHGNFGHSYVSWFAVWGQGTLVTVSS VL: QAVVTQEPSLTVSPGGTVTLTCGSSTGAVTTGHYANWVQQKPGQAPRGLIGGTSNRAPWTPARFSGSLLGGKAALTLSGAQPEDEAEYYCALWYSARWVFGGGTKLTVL ) is > 20 µg/mL

# IC50 (binder: huSP34.4.1 Fab-HF (Fab, V domains shown) VH: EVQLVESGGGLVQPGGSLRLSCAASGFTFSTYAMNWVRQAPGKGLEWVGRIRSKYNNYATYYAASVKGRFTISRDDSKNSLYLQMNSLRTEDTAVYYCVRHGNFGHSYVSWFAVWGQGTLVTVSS VL: QAVVTQEPSLTVSPGGTVTLTCRSSTGAVTTSNYANWVQQKPGQAPRGLIGGTNKRAPWTPARFSGSLIGDKAALTLSGAQPEDEAEYYCALWYSNLWVFGGGTKLTVL ) is 5.9 µg/mL

# IC50 (binder: huSP34.5.2 Fab-HF (Fab, V domains shown) VH: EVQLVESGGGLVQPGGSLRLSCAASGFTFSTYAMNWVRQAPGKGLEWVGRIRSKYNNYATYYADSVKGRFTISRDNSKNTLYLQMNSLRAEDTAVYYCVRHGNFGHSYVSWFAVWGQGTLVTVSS VL: QAVVTQEPSLTVSPGGTVTLTCGSSTGAVTTSNYANWVQQKPGQAPRGLIGGTSNRAPWTPARFSGSLLGGKAALTLSGAQPEDEAEYYCALWYSNLWVFGGGTKLTVL ) is > 20 µg/mL

# IC50 (binder: huSP34.4.6 Fab-HF (Fab, V domains shown) VH: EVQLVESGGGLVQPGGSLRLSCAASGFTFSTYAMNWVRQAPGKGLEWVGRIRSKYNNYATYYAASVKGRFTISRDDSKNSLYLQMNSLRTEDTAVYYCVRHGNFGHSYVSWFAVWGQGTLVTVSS VL: QAVVTQPPSLTVSPGGTVTLTCGSSTGAVTTGHYANWVQQKPGQAPRGLIGGTSNRAPGVPARFSGSLSGGKAALTISGAQPEDEAEYYCALWYSARWVFGGGTKLTVL ) is 4.2 µg/mL

# IC50 (binder: huSP34.3.5 Fab-HF (Fab, V domains shown) VH: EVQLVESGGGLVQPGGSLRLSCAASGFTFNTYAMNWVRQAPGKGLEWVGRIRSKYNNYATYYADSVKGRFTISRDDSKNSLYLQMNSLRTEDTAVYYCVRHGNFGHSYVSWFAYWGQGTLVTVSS VL: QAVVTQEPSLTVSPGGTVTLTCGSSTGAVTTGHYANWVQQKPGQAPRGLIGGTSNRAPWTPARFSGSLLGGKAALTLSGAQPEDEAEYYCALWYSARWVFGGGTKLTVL ) is 10 µg/mL

# IC50 (binder: huSP34.4.2 Fab-HF (Fab, V domains shown) VH: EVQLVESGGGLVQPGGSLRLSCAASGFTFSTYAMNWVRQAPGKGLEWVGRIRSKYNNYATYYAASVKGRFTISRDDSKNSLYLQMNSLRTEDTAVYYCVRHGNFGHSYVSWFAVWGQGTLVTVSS VL: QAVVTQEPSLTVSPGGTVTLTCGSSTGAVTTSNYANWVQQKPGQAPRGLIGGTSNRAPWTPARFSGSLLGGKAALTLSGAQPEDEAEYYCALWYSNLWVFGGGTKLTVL ) is > 20 µg/mL
